Assay: P-glycoprotein substrates identified in KB-8-5-11 adenocarcinoma cell line, qHTS therapeutic library screen (AID 1346987); note: nearly all actives have a fitted effect of over 65% in size
Conditions: KB-8-5-11 (P-gp overexpressing) viability, CellTiter-Glo, 72 h; series mostly up to 44.5 µM
Inconclusive results are not listed. Activity calls are given as the source filed them. Calls come from the whole dose curve; as a rule, active = well fitted inhibition curve with a large enough effect; inconclusive = small, poorly fitted or top-dose-only effect; inactive = flat fitted curve, though single readings scatter.
A correct response names exactly one class from y = active, n = inactive

C=C1CC[C@H]2[C@@H](/C=C(\C)C(=O)[C@@]3(OC(C)=O)C[C@H](C)[C@H](OC(=O)c4ccccc4)[C@@H]3[C@H]1OC(C)=O)C2(C)C :: n
COC1C(O)C(C)OC(OC2C(CO)O[C@@H](O[C@@H]3CC4CCC5C(CC[C@]6(C)[C@@H](C7=CC(=O)OC7)CC[C@]56O)[C@@]4(C)[C@H](OC(C)=O)C3)C(O)C2O)C1O (stereo partly specified) :: y
CCOC(=O)c1ccc(-c2ccc(OC(=O)N(C)Cc3cccc(-c4ccncc4)c3)cc2)cc1 :: n
CC1=CC2/C=C(\C)CCC(O)C(O)C(O)CC(=O)C23C(=O)NC(CC(C)C)C3C1C (stereo unspecified) :: n
CCN(CC)/[N+]([O-])=N/O :: n

Please share the test call associated with COC(=O)C12C(=O)C(C)(O)C(=O)C1(C)C(C)=CC1C3(C=O)CCC(OC(C)=O)C(C)(C)C3CCC12C (stereo unspecified) .
n
